Attribution: patent US20020137929A1

System: ORYSAT (Rice, Tebonnet)
protocol.details: Rice tolerance to post-transplant applications, flooded paddy conditions (Table III)
Assay type: in vivo, Oryza sativa, (L.) Tebonnet
recorded.conditions: 0.1250 kg/ha; post-transplant rice, flooded paddy; rated 3-4 weeks after treatment
reported.property: Herbicidal rating ORYSAT (rice tolerance)

compound: CCOP(=O)(CN1C(=O)CSC1=Nc1cc(-n2c(=O)cc(C(F)(F)F)n(C)c2=O)c(F)cc1Cl)OCC
val: 2.0
--
compound: O=C(O)CC1SC(=Nc2cc(N3C(=O)C4=C(CCCC4)C3=O)c(F)cc2Cl)N(CC(=O)O)C1=O (centres unmarked)
val: 4.0
--
compound: CCOC(=O)CN1C(=O)C[S+]([O-])/C1=N/c1cc(-n2c(=O)cc(C(F)(F)F)n(C)c2=O)c(F)cc1Cl (centres unmarked)
val: 2.0
--
compound: CCOC(=O)COc1ccccc1CC1S/C(=N/c2cc(-n3c(=O)cc(C(F)(F)F)n(C)c3=O)c(F)cc2Cl)N(CC(=O)OCC)C1=O (centres unmarked)
val: 0.0
--
compound: O=C1CSC(=Nc2cc(N3C(=O)C4=C(CCCC4)C3=O)c(F)cc2Cl)N1c1ccccc1
val: 2.0

---

Tested on: CASOB (Sicklepod)
protocol.details: Postemergence herbicidal evaluation
Type: in vivo, Cassia obtusifolia
recorded.conditions: postemergence, rate 0.1250 kg/ha
Measured herbicidal rating CASOB of individual entries

compound: CCOC(=O)CN1C(=O)C(CC(=O)NS(=O)(=O)c2ccccc2)SC1=Nc1cc(-n2c(=O)cc(C(F)(F)F)n(C)c2=O)c(F)cc1Cl (centres unmarked)
assayed.target: CASOB (Sicklepod)
herbicidal rating CASOB: 9.0
//
compound: C#CC(C)N1C(=O)CSC1=Nc1cc(-n2c(=O)cc(C(F)(F)F)n(C)c2=O)c(F)cc1Cl (centres unmarked)
assayed.target: CASOB (Sicklepod)
herbicidal rating CASOB: 3.0
//
compound: CCOC(=O)CN1C(=O)C(C(=O)OCC)SC1=Nc1cc(-n2c(=O)cc(C(F)(F)F)n(C)c2=O)c(F)cc1Cl (centres unmarked)
assayed.target: CASOB (Sicklepod)
herbicidal rating CASOB: 1.0
//
compound: Cn1c(C(F)(F)F)cc(=O)n(-c2cc(N=C3SCC(=O)N3Cc3ccco3)c(Cl)cc2F)c1=O
assayed.target: CASOB (Sicklepod)
herbicidal rating CASOB: 4.0
//
compound: CCOC(=O)CN1C(=O)C(Cl)SC1=Nc1cc(-n2c(=O)cc(C(F)(F)F)n(C)c2=O)c(F)cc1Cl (centres unmarked)
assayed.target: CASOB (Sicklepod)
herbicidal rating CASOB: 4.0

---

List of CHEAL herbicidal rating values.
System: CHEAL (Lambsquarters, Common)
protocol.details: Postemergence herbicidal evaluation
Format: in vivo, Chenopodium album
recorded.conditions: postemergence, rate 0.0625 kg/ha

compound: CN1C(=O)C(F)SC1=Nc1cc(N2C(=O)C3=C(CCCC3)C2=O)c(F)cc1Cl (stereo not drawn) [Compound 5]
assayed.target: CHEAL (Lambsquarters, Common)
CHEAL herbicidal rating: 6.0
--
compound: CCOC(=O)CN1C(=O)C(C)SC1=Nc1cc(-n2c(=O)cc(C(F)(F)F)n(C)c2=O)c(F)cc1Cl (stereo not drawn) [Compound 12]
assayed.target: CHEAL (Lambsquarters, Common)
CHEAL herbicidal rating: 9.0
--
compound: O=C1CSC(=Nc2cc(N3C(=O)C4=C(CCCC4)C3=O)c(F)cc2Cl)N1c1ccccc1 [Compound 3]
assayed.target: CHEAL (Lambsquarters, Common)
CHEAL herbicidal rating: 6.0
--
compound: COC(=O)CN1C(=O)CSC1=Nc1cc(-n2c(=O)cc(C(F)(F)F)n(C)c2=O)c(F)cc1Cl [Compound 17]
assayed.target: CHEAL (Lambsquarters, Common)
CHEAL herbicidal rating: 4.0
--
compound: CN1C(=O)CSC1=Nc1cc(N2C(=O)C3=C(CCCC3)C2=O)c(F)cc1Cl [Compound 1]
assayed.target: CHEAL (Lambsquarters, Common)
CHEAL herbicidal rating: 7.0
--
compound: C=CCN1C(=O)C(CC(N)=O)SC1=Nc1cc(-n2c(=O)cc(C(F)(F)F)n(C)c2=O)c(F)cc1Cl (stereo not drawn) [Compound 99]
assayed.target: CHEAL (Lambsquarters, Common)
CHEAL herbicidal rating: 9.0
